measured on: recombinant human MetAP2 (Homo sapiens, UniProt P50579)
Sequence (P50579 whole entry): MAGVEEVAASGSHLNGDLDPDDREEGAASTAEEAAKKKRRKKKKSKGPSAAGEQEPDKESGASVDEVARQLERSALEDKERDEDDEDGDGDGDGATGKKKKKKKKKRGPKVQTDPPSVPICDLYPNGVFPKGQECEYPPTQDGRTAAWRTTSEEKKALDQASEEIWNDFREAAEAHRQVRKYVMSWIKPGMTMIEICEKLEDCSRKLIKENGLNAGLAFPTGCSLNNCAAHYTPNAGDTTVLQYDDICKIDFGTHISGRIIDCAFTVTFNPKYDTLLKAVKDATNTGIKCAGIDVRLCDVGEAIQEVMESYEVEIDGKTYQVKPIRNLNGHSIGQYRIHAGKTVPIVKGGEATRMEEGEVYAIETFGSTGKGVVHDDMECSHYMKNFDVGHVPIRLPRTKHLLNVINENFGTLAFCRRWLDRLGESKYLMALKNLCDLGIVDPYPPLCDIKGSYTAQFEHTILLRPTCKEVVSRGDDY
experiment: Inhibition of recombinant human MetAP2 activity (MAS substrate, amino acid oxidase/Amplex red fluorescence)
stated conditions: manganese enzyme, 0.75 mM MAS substrate, 30 minutes at 25° C., pH 7.5, 1% DMSO; read-out: Activity (IC50 class, MetAP2 inhibition)
The entries below are paired with their reported IC50.
measure name: IC50

1) CCN(CC)C/C=C\c1cc(F)ccc1S(=O)(=O)Nc1ccc2c(nc3n2CCC3)c1C(=O)O :: > 500 nM
2) CCN(CC)C/C=C\c1cc(F)ccc1S(=O)(=O)Nc1ccc2c(c1C(=O)O)OC[C@H]1CCN21 :: > 500 nM
3) CCN(CC)C/C=C\c1cc(F)ccc1S(=O)(=O)Nc1ccc2c(c1C(=O)O)CC1CCCN21 (centres unmarked) :: 50 to 500 nM
4) CCN(CC)C/C=C\c1cc(F)ccc1S(=O)(=O)Nc1ccc2c(c1C(=O)O)CCC1CCCN21 (centres unmarked) :: 50 to 500 nM
5) O=C(O)c1c(NS(=O)(=O)c2ccccc2)ccc2c1cc1n2CCC1 :: > 500 nM
6) CCN(CC)C/C=C\c1cc(F)ccc1S(=O)(=O)Nc1ccc2c(cc3n2CCC3)c1C(=O)O :: < 50 nM
7) CCN(CC)C/C=C\c1cc(F)ccc1S(=O)(=O)Nc1ccc2c(c1C(=O)O)OC[C@@H]1CCCN21 :: 50 to 500 nM
8) CCN(CC)C/C=C\c1cc(F)ccc1S(=O)(=O)Nc1ccc2c(c1C(=O)O)OC[C@H]1CCCN21 :: 50 to 500 nM
